Molecular target: T1, human OX40-FC-biotin (human OX40 recombinant protein with Fc tag, Acro Biosystems OX40-H5255, labeled with … (human, UniProt P43489 29-216, labeled with biotin (site not stated)))
T1 construct: range 29-216; Bought (Acro Biosystems OX40-H5255; printed once as OXO-H5255), expressed in HEK293; also called human Bio-OX40-FC; not shown: Fc tag of the bought protein
T1 sequence (looked up): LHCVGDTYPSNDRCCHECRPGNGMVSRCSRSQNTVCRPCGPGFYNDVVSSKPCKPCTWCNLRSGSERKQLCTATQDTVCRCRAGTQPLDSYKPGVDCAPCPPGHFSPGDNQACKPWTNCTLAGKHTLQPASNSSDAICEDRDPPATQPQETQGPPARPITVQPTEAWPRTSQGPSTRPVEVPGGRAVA
Assay: capture ELISA, biotin-OX40-Fc
Experimental: 20xPBS buffer was diluted to 1 xwith deionized water. […] The parameters were set for the microplate reader, the OD value was read at 450-630nm, and the test data were saved.
recorded metric: binding result

humanized antibody hu4B5-V22 (antibody, human IgG1, V domains shown, hu4B5 VH0 + hu4B5 VL4; human IgG1 / human Kappa constant regions) VH: QVQLQESGPGLVKPSETLSLTCTVSGFSLTSYGLHWIRQPPGKGLEWIGVIWSGGSTDYNAAFISRVTISVDTSKNQFSLKLSSVTAADTAVYYCAREEYDVWGQGTTVTVSS VL: DIQMTQSPSSLSASVGDRVTITCRASQDISNYLNWYQQKPGGTVKLLIYYTSRLHSGVPSRFSGSGSGTDYTLTISSLQPEDVATYFCQQGNTLPWTFGGGTKVEIK :: binds
humanized antibody hu4B5-V16 (antibody, human IgG1, V domains shown, hu4B5 VH1 + hu4B5 VL2; human IgG1 / human Kappa constant regions) VH: QVQLQESGPGLVKPSETLSLTCTVSGFSLTSYGLHWIRQPPGKGLEWIGVIWSGGSTDYNAAFISRVTISKEDSKNQFSLKLSSVTAADTAVYYCAREEYDVWGQGTTVTVSS VL: DIQMTQSPSSLSASVGDRVTITCRASQDISNYLNWYQQKPGGVPKLLIYYTSRLHSGVPSRFSGSGSGTDYTLTISSLQPEDVATYYCQQGNTLPWTFGGGTKVEIK :: binds
